biological target: Adrenergic β2 (Homo sapiens); construct: Adherent H292 cells were removed from tissue culture flasks; endogenous in cells; host or cells: H292 cells; assay: Adrenergic β2 mediated cAMP production in H292 cells; type: cell-based; details: Intrinsic Activity as a fraction relative to the maximum activity determined for formoterol
Sequence (P07550 whole entry): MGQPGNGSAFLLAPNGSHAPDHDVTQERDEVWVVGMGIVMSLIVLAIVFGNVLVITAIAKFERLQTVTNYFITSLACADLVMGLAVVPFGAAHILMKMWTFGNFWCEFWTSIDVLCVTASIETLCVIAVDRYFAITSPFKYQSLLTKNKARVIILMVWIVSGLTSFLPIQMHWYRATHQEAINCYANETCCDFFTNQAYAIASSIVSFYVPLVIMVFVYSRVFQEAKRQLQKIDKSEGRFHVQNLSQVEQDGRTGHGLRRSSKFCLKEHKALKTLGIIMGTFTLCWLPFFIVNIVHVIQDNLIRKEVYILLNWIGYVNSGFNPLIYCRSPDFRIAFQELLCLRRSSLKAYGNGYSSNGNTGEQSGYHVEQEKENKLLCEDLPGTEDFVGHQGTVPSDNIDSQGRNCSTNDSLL
Where a name gives a salt, the structure may show the parent alone.
result.type: β2 Int Act

O=C(CCNCCc1ccc(Cl)cc1)N(CCNCCc1ccc(O)c2[nH]c(=O)sc12)C1CCCCC1 [Example 13, bis-trifluoroacetic acid salt]
0.71
O=C(CCNCCc1cccc(Cl)c1)N(CCNCCc1ccc(O)c2[nH]c(=O)sc12)C1CCC(F)(F)CC1 [Example 47, bis-trifluoroacetic acid salt]
0.73
O=C(CCNCCc1ccc(Cl)cc1)N(CCNCCc1ccc(O)c2[nH]c(=O)sc12)C1CCCCCC1 [Example 51, bis-trifluoroacetic acid salt]
0.59
Cc1cccc(CCNCCC(=O)N(CCNCCc2ccc(O)c3[nH]c(=O)sc23)CC(C)(C)C)c1 [Example 10, bis-trifluoroacetic acid salt]
0.69
O=C(CCNCCc1ccc(F)c(F)c1)N(CCNCCc1ccc(O)c2[nH]c(=O)sc12)C1CCCCCC1 [Example 53, bis-trifluoroacetic acid salt]
0.74
O=C(CCNCCc1ccc(O)c2[nH]c(=O)sc12)N(CCNCCc1ccc(O)c2[nH]c(=O)sc12)C1CCCCCC1 [Example 87, bis-trifluoroacetic acid salt]
0.72
CC(C)(Cc1ccccc1)NCCC(=O)N(CCNCCc1ccc(O)c2[nH]c(=O)sc12)C1CCCCC1 [Example 19, bis-trifluoroacetic acid salt]
0.70
CCCC(CCC)N(CCNCCc1ccc(O)c2[nH]c(=O)sc12)C(=O)CCNCCc1ccc(F)cc1 [Example 64, bis-trifluoroacetic acid salt]
0.70
O=C(CCNC[C@@H](O)c1ccccc1)N(CCNCCc1ccc(O)c2[nH]c(=O)sc12)C1CCCCC1 [Example 74, bis-trifluoroacetic acid salt]
0.79
CCCC[C@@H](C)N(CCNCCc1ccc(O)c2[nH]c(=O)sc12)C(=O)CCNCCc1ccccc1 [Example 101, bis-trifluoroacetic acid salt]
0.98
COc1cccc(CCNCCC(=O)N(CCNCCc2ccc(O)c3[nH]c(=O)sc23)CC(C)(C)C)c1 [Example 43, bis-trifluoroacetic acid salt]
0.67
O=C(CCNCCc1ccccn1)N(CCNCCc1ccc(O)c2[nH]c(=O)sc12)C1CCCCC1 [Example 33, bis-trifluoroacetic acid salt]
0.78

====

target: Adrenergic β2 (Homo sapiens); construct: Adherent H292 cells were removed from tissue culture flasks; endogenous in cells; host or cells: H292 cells; assay: Adrenergic β2 mediated cAMP production in H292 cells; type: cell-based; settings: H292 cells, cAMP by AlphaScreen, 60 minutes at room temperature, rolipram 300 μM; read-out: β2 pEC50 (converted)
Structures can show the parent of a compound that is named as a salt.
result.type: EC50 (nM)

Some compounds with known EC50 results, for comparison:
O=C(CCNCCc1cccc(F)c1F)N(CCNCCc1ccc(O)c2[nH]c(=O)sc12)C1CCCCC1 [Example 81, bis-trifluoroacetic acid salt]
2.51
O=C(CCNCCc1ccc(Cl)c(Cl)c1)N(CCNCCc1ccc(O)c2[nH]c(=O)sc12)C1CCOCC1 [Example 24, bis-trifluoroacetic acid salt]
7.94

I = O=C(CCNCCc1c(F)cccc1F)N(CCNCCc1ccc(O)c2[nH]c(=O)sc12)C1CCCCCC1 [Example 84, bis-trifluoroacetic acid salt]
II = COc1cccc(CCNCCC(=O)N(CCNCCc2ccc(O)c3[nH]c(=O)sc23)CC(C)(C)C)c1 [Example 43, bis-trifluoroacetic acid salt]
III = O=C(CCNCCc1ccc2c(c1)OCO2)N(CCNCCc1ccc(O)c2[nH]c(=O)sc12)C1CCCCC1 [Example 76, bis-trifluoroacetic acid salt]
IV = O=C(CCNCCc1cccc(O)c1)N(CCNCCc1ccc(O)c2[nH]c(=O)sc12)C1CCCCC1 [Example 71, bis-trifluoroacetic acid salt]
Place the items in sequence of falling EC50. Your reply should list the labels following the order given in the request. I, II, III, IV
(I: 20 nM, II: 10 nM, III: 6.31 nM, IV: 0.398 nM)
